The reported measurements were obtained from patent US20120165331A1.

Target: human orexin 2 receptor (Homo sapiens)
Sequence (O43614 whole entry): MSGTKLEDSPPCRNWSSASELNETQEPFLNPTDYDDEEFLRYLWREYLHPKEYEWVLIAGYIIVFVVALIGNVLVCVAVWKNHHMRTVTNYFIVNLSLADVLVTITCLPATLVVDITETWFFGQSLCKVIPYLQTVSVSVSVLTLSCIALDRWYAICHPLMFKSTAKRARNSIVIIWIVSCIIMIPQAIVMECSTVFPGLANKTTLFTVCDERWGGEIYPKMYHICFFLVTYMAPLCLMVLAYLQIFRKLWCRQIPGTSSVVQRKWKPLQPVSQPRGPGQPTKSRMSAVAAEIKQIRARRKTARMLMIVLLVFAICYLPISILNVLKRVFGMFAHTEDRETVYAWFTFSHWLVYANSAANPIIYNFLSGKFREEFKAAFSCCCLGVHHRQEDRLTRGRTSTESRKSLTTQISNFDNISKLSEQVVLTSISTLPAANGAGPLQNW
Assay: Calcium accumulation in cells (FLIPR), antagonism of orexin A, human orexin 2 receptor
Settings: calcium accumulation, antagonism of orexin A, Cheng-Prusoff corrected; read-out: FLIPR hOx2R Ki
quantity_kind: Ki (nM)
Your answer should be a plain number; it is taken to be in nM.

Take a look at these entries with their results.
COc1cccc(N2CCC3(CCN(Cc4c[nH]c5ccccc45)C3=O)CC2)n1; 287
COc1cncc(-c2cn(C)nc2CN2CCNC3(CCN(c4nc(C)cc(C)n4)CC3)C2=O)c1; 16
Cc1cc(C)nc(N2CCC3(CCN(Cc4c[nH]c5ccccc45)C3=O)C2)n1 (centres unmarked); 249
Cc1cc(C)nc(N2CCC3(CC2)NCCN(Cc2ccccc2-c2nc(C)no2)C3=O)n1; 235
Cc1cncc(N2CCC3(CC2)COC(=O)N3Cc2cccc3[nH]ccc23)n1; 675
COc1cccc(-c2cn(C)nc2CN2CCNC3(CCN(c4nc(C)cc(C)n4)CC3)C2=O)c1; 6
Cc1cc(C)nc(N2CCC3(CCN(Cc4cccc5[nH]ccc45)C3=O)C2)n1 (centres unmarked); 1290

Could you now consider this next compound?
// map `Cc1cc(C)nc(N2CCC3(CC2)NCCN(Cc2nn(C)cc2-c2cccc(Cl)c2)C3=O)n1` to recorded Ki (system: human orexin 2 receptor (Homo sapiens))
83
